Biological target: T1, LGR7 (relaxin 2 receptor), recombinant, stably expressed in HEK293T cells with a CRE-Luc reporter (UniProt Q9HBX9 1-757, limits assumed)
T1 sequence (looked up): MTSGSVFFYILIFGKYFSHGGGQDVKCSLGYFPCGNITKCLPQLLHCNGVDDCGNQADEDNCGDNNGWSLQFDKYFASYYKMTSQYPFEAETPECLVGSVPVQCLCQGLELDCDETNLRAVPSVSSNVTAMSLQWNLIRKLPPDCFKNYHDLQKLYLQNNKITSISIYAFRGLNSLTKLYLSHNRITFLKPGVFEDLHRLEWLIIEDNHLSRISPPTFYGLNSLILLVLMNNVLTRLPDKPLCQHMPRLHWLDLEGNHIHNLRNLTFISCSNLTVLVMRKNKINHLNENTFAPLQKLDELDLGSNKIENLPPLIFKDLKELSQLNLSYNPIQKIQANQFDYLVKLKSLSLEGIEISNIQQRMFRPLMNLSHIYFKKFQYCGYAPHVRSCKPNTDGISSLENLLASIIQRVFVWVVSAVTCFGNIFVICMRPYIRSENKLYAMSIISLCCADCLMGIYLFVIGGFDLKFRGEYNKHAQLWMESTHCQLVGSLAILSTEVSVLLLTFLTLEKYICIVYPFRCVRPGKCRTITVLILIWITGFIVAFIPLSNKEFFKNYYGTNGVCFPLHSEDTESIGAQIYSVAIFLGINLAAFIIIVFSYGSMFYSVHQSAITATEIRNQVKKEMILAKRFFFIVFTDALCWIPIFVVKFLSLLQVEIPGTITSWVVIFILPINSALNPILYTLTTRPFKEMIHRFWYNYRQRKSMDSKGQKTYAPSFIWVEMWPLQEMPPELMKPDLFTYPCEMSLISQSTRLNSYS
Test: cell-based or functional assay
No end group written: not given here. FA182 = acetamide-PEG5-Lys-myristic acid; FA186 = acetamide-PEG5-Lys-stearic acid
Value kind: LGR7 EC50 (pM), CRE-Luc reporter in HEK293T cells expressing LGR7
Answers are plain numbers, in pM.

Relaxin-B:D1A-A:Q1-L2C-FA182 (ligand, ends and bridges not checked) chain 1: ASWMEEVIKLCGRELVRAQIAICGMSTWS chain 2: QC(FA182)YSALANKCCHVGCTKRSLARFC: 51

Please look at the following binder next.
Exercise: // query LGR7 EC50 (pM), CRE-Luc reporter in HEK293T cells expressing LGR7 value for entry Relaxin-B:D1A-A:Q1-L2C-FA186 (ligand, ends and bridges not checked) chain 1: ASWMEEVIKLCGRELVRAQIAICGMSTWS chain 2: QC(FA186)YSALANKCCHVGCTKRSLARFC
Key: 235

The values you see were collected from patent US20180207276A1.
